- Experiment summary: Stability in acetate buffer pH 5.0 at room temperature via HPLC (UV)
- Assay type: physicochemical
- Condition description: pH 5, acetate buffer pH 5.0, RT, HPLC 254 nm, read-out: t1/2 in acetate buffer at RT

- Compound: "C/C(=N\\OC(=O)N(CCN(C)C)CCN(C)C)[C@H]1CC[C@H]2[C@@H]3CCC4=CC(=O)CC[C@]4(C)[C@H]3CC[C@]12C [20y]"
  half-life at 1 mg/mL: "7.93 min"

---

A collection of compounds and their measured solubility
- Experiment summary: Aqueous solubility by visual inspection in acetate buffer (pH 5)
- Condition description: sodium acetate buffer, pH 5

- Compound: "C/C(=N\\OC(=O)N(CCN(C)C)CCN(C)C)[C@H]1CC[C@H]2[C@@H]3CCC4=CC(=O)CC[C@]4(C)[C@H]3CC[C@]12C [20y]"
  solubility: "< 10000 µg/mL"
- Compound: "C/C(=N\\OC(=O)N(C)C[C@@H]1CC(F)(F)CN1)[C@H]1CC[C@H]2[C@@H]3CCC4=CC(=O)CC[C@]4(C)[C@H]3CC[C@]12C [20r]"
  solubility: "< 10000 µg/mL"
